assay: 50% lethal dose (LD50), i.v., mouse; conditions: in vivo, iv
VALUE TYPE: LD50 (mg/kg)

{"MOLECULE": "Cc1ccc2c(nc(O)c3c(=O)cc(C(=O)O)oc32)c1C [Compound 1]", "UNIT ABBREV": "mg/kg", "OBS VALUE": 560}

---

test system: passive cutaneous anaphylaxis; assay: Passive cutaneous anaphylaxis tests (PCA) on rats; type: in vivo, SLC-strain Wistar rat; conditions: dose 3 mg/kg (quantity as the tris (hydroxymethyl) methyl ammonium salt), intravenous, rat PCA; read-out: Inhibition rate
Below, each entry is listed alongside its reported inhibition in vivo at 3 mg/kg.
VALUE TYPE: inhibition in vivo at 3 mg/kg (%)

{"SMILES DATA": "Cc1ccc2nc(O)c3c(=O)cc(C(=O)O)oc3c2c1", "VALUE TYPE": "inhibition in vivo at 3 mg/kg", "UNIT ABBREV": "%", "OBS VALUE": 100}
{"SMILES DATA": "O=C(O)c1cc(=O)c2c(O)nc3ccc(Br)cc3c2o1", "VALUE TYPE": "inhibition in vivo at 3 mg/kg", "UNIT ABBREV": "%", "OBS VALUE": 90}
{"SMILES DATA": "Cc1cc(C)c2nc(O)c3c(=O)cc(C(=O)O)oc3c2c1", "VALUE TYPE": "inhibition in vivo at 3 mg/kg", "UNIT ABBREV": "%", "OBS VALUE": 90}
{"SMILES DATA": "COc1cc2nc(O)c3c(=O)cc(C(=O)O)oc3c2cc1OC", "VALUE TYPE": "inhibition in vivo at 3 mg/kg", "UNIT ABBREV": "%", "OBS VALUE": 90}
{"SMILES DATA": "O=C(O)c1cc(=O)c2c(O)nc3ccc(OCc4ccccc4)cc3c2o1", "VALUE TYPE": "inhibition in vivo at 3 mg/kg", "UNIT ABBREV": "%", "OBS VALUE": 96}
{"SMILES DATA": "CCc1ccc2nc(O)c3c(=O)cc(C(=O)O)oc3c2c1", "VALUE TYPE": "inhibition in vivo at 3 mg/kg", "UNIT ABBREV": "%", "OBS VALUE": 90}

---

experiment: 50% lethal dose (LD50), i.v., mouse; conditions: in vivo, iv
VALUE TYPE: selectivity ratio

{"SMILES DATA": "Cc1ccc2c(nc(O)c3c(=O)cc(C(=O)O)oc32)c1C", "VALUE TYPE": "selectivity ratio", "OBS VALUE": 20000}

---

system: passive cutaneous anaphylaxis; assay: Passive cutaneous anaphylaxis tests (PCA) on rats; format: in vivo, SLC-strain Wistar rat; conditions: dose 3 mg/kg (quantity as the tris (hydroxymethyl) methyl ammonium salt), intravenous, rat PCA; read-out: Inhibition rate
VALUE TYPE: inhibition in vivo at 3 mg/kg

{"COMPOUND": "O=C(O)c1cc(=O)c2c(O)nc3ccc(F)cc3c2o1 [Compound 14]", "VALUE TYPE": "inhibition in vivo at 3 mg/kg", "OBS VALUE": "90%"}
{"COMPOUND": "COc1cccc2c1nc(O)c1c(=O)cc(C(=O)O)oc12 [Compound 5]", "VALUE TYPE": "inhibition in vivo at 3 mg/kg", "OBS VALUE": "98%"}
{"COMPOUND": "O=C(O)c1cc(=O)c2c(O)nc3ccc(-c4ccccc4)cc3c2o1 [Compound 10]", "VALUE TYPE": "inhibition in vivo at 3 mg/kg", "OBS VALUE": "90%"}
{"COMPOUND": "COc1ccc2c(c1)nc(O)c1c(=O)cc(C(=O)O)oc12 [Compound 15]", "VALUE TYPE": "inhibition in vivo at 3 mg/kg", "OBS VALUE": "90%"}
{"COMPOUND": "CCOC(=O)c1ccc2nc(O)c3c(=O)cc(C(=O)O)oc3c2c1 [Compound 9]", "VALUE TYPE": "inhibition in vivo at 3 mg/kg", "OBS VALUE": "100%"}
{"COMPOUND": "COc1ccc2nc(O)c3c(=O)cc(C(=O)O)oc3c2c1 [Compound 4]", "VALUE TYPE": "inhibition in vivo at 3 mg/kg", "OBS VALUE": "98%"}
{"COMPOUND": "O=C(O)c1cc(=O)c2c(O)nc3ccc(Cl)cc3c2o1 [Compound 7]", "VALUE TYPE": "inhibition in vivo at 3 mg/kg", "OBS VALUE": "100%"}
{"COMPOUND": "CCCCc1ccc2nc(O)c3c(=O)cc(C(=O)O)oc3c2c1 [Compound 6]", "VALUE TYPE": "inhibition in vivo at 3 mg/kg", "OBS VALUE": "94%"}
{"COMPOUND": "Cc1ccc2c(nc(O)c3c(=O)cc(C(=O)O)oc32)c1C [Compound 1]", "VALUE TYPE": "inhibition in vivo at 3 mg/kg", "OBS VALUE": "100%"}
{"COMPOUND": "Cc1cccc2c1nc(O)c1c(=O)cc(C(=O)O)oc12 [Compound 3]", "VALUE TYPE": "inhibition in vivo at 3 mg/kg", "OBS VALUE": "100%"}

Data origin: patent US4086349A
